Tested on: Saccharomyces cerevisiae;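 further: PSI is a weighted mean of sequencing reads over stability bins, variants kept only with over 10 reads, mCherry proximal and sfGFP distal, peptide attached via GGGS linker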
protocol notes: protein stability index of tFT-peptide fusion (C-terminal peptide) (PSI (0-1 scale)); higher = more stable (slower turnover)
condition: genetic background: cdc53-1; temperature: 37 C
Classification scheme (protein stability index): low: < 0.4; middle: ≥ 0.4 and < 0.6; high: ≥ 0.6

Which bin should I file `VVFWWGHLLVSA` under? low

Which bin should I file `CVPAPCGRASCR` under? high

Which bin should I file `LLGSRFVLIRSL` under? middle

Which bin should I file `TLLAFLIYLCFL` under? middle

Which bin should I file `CLGLFPSLLRLS` under? high

Which bin should I file `VVFWFPFVLRCC` under? low

Which bin should I file `FFSGSVFMAVSL` under? middle

Which bin should I file `RLIQPLPVQFLN` under? high

Which bin should I file `DTHSRARAVLIA` under? high

Which bin should I file `CMPVYYTVVIRL` under? low

Which bin should I file `VFMTLHCITIYK` under? middle
